Assign TGI to each entry below.
Tested on: MDA-MB-231 breast
assay_name: NCI tumour cell line growth inhibition, 48 h

Here's what some known entries look like.
{"molecule": "COc1cc(CNC(=O)CCCCCCCCCCSC#N)ccc1O", "system_tested": "MDA-MB-231 breast", "TGI": "> 100 µM"}
{"molecule": "CC1=NN(c2cccc(S(=O)(=O)O)c2)C2(C1)SCC(=O)N2c1nc2ccccc2s1 (centres undefined)", "system_tested": "MDA-MB-231 breast", "TGI": "> 100 µM"}
{"molecule": "O=[N+]([O-])c1cc(C2ON=C(c3ccccc3)N2C23CC4CC(CC(C4)C2)C3)ccc1Cl (centres undefined)", "system_tested": "MDA-MB-231 breast", "TGI": "> 100 µM"}
{"molecule": "Cc1cnc2n(c1=O)Cc1ccccc1CO2", "system_tested": "MDA-MB-231 breast", "TGI": "32 µM"}
{"molecule": "O=C(O)Cc1ccc(-n2nnc3c(=O)[nH][nH]c(=O)c32)cc1", "system_tested": "MDA-MB-231 breast", "TGI": "> 100 µM"}
{"molecule": "ClC1(Cl)C2CCOC21n1cnc2ccccc21 (centres undefined)", "system_tested": "MDA-MB-231 breast", "TGI": "> 100 µM"}
{"molecule": "COc1ccc(/C=C2/C(=O)C(c3ccccc3)N(c3ccccc3)C2=O)cc1OC (centres undefined)", "system_tested": "MDA-MB-231 breast", "TGI": "> 10 µM"}
{"molecule": "CC1(C)C/C=C\\CCC(O)C(O)CCC(C)(C)C1=O (centres undefined)", "system_tested": "MDA-MB-231 breast", "TGI": "> 100 µM"}
{"molecule": "Cc1cc(NS(=O)(=O)c2ccc(N=Nc3c(Nc4ccccc4)nn(-c4ccc(S(=O)(=O)Nc5ccncn5)cc4)c3C)cc2)no1", "system_tested": "MDA-MB-231 breast", "TGI": "> 100 µM"}
{"molecule": "CC(NC(=O)C1(N)CCCC1)C(=O)O (centres undefined)", "system_tested": "MDA-MB-231 breast", "TGI": "> 100 µM"}

Hello, I would appreciate it if you could give TGI for each entry below.
1. COc1ccc(/C=C/c2cnnc3ccccc23)cc1OC
2. CCOC(=O)C(/C=N/C(N)=S)=C(/O)c1ccccc1

1. > 10 µM
2. > 100 µM

Hi! Can you tell me TGI for each of these molecules?
1. COc1ccc2c(c1)cn1c3ccc(OC)cc3[nH]c(=O)c21
2. CCN(CC)CCCNc1c2cc(OC)ccc2nc2cccc([N+](=O)[O-])c12
3. Nc1nc(=O)n(C2CC(O)C(CO)O2)c2nc(-c3ccc(-c4ccccc4)cc3)cnc12 (centres undefined)
4. COc1ccc([C@H]2C=C(c3cc(F)c(Cl)cc3Cl)N=c3s/c(=C\c4ccc(-c5ccc(Cl)cc5Cl)o4)c(=O)n32)cc1
5. O=c1ccc2c(Cl)sc(Cl)c2[nH]1
6. COC(=O)C1=C(C(=O)OC)C2CCC1CC2=O (centres undefined)
7. COC(=O)c1cccc(COc2ccc([N+](=O)[O-])cc2Cl)c1
8. CC(=O)SC(C[N+](=O)[O-])c1ccccc1 (centres undefined)

0.27 µM
0.319 µM
50.1 µM
70.2 µM
> 100 µM
> 100 µM
> 100 µM
27 µM

Could you tell me TGI for each of these molecules? They are listed below.
1. CN(Cc1cccc(Cl)c1)c1ccc(CO)c(Cl)c1
2. CC(=O)Nc1ccc2cc3c(nc2n1)c1cccnc1n3S(=O)(=O)c1ccccc1

1: 59.9 µM; 2: > 100 µM

---

For each entry below, report its TGI value.
Tested on: OVCAR-3 ovarian
assay_name: NCI tumour cell line growth inhibition, 48 h

Consider the following illustrative entries.
{"compound": "CC1(C)CC(=O)C(/C=N/c2nc(-c3cccc([N+](=O)[O-])c3)cs2)=C(O)C1", "reported_measurement": "> 100 µM"}
{"compound": "CCc1cc(Cc2cc(CC)cc(C(C)(C)C)c2O)c(O)c(C(C)(C)C)c1", "reported_measurement": "5.33 µM"}
{"compound": "Cc1nc2c(ccc3[nH]c4ccccc4c32)s1", "reported_measurement": "64.1 µM"}
{"compound": "c1ccc(Oc2cnc3ccccc3n2)cc1", "reported_measurement": "> 100 µM"}
{"compound": "COc1cc(C2C(Cl)C(=O)N2NC(=O)c2ccccc2O)cc(OC)c1OC (stereo not drawn)", "reported_measurement": "> 10 µM"}

Answer for every listed entry: what is its TGI? The entries follow.
1. CCOc1ccc(-n2cc(-c3ccc(N(C)C)cc3)[n+]3c2CCCCC3)cc1
2. COC(=O)c1cc(OCc2cc(OCc3ccc(Br)cc3)cc(OCc3ccc(Br)cc3)c2)cc(OCc2cc(OCc3ccc(Br)cc3)cc(OCc3ccc(Br)cc3)c2)c1

1: 60.2 µM; 2: > 100 µM

Go through the list and state TGI for each entry.
1. OCC1C2C=CC(O2)[C@H]1CO (stereo partly drawn)
2. CCCCCCCCCCCC(=O)[O][Sn]([CH2]CCC)([CH2]CCC)[CH2]CCC
3. COc1ccc(Nc2cnc3cc(N)ccc3n2)cc1OC

["> 100 µM", "0.125 µM", "> 100 µM"]

Take each entry in turn and give its TGI.
1. O=[N+]([O-])c1cc(C2ON=C(c3ccccc3)N2C23CC4CC(CC(C4)C2)C3)ccc1Cl (stereo not drawn)
2. Cc1csc(CP(=O)(OC(C)C)OC(C)C)n1
3. NC(CSC(c1ccccc1)(c1ccccc1)c1ccc(Br)cc1)C(=O)O (stereo not drawn)
4. CCCCCCCCCCCCCCCc1nc(SCC(=O)O)n[nH]1
5. NC(=O)NC(=O)c1cccc(C(=O)NC(N)=O)n1
6. Nc1nc(-c2ccccc2Cl)cc(-c2ccc(Cl)cc2Cl)n1
7. CC1=NN(c2cccc(S(=O)(=O)O)c2)C2(C1)SCC(=O)N2c1nc2ccccc2s1 (stereo not drawn)

1. > 100 µM
2. > 100 µM
3. 0.412 µM
4. > 100 µM
5. > 100 µM
6. 20.7 µM
7. > 100 µM

---

System: MOLT-4 leukemia
assay_name: NCI tumour cell line growth inhibition, 48 h; in the data active = GI50 below about 0.43 µM; inactive = the rest
Give one outcome, nothing more. List: 1 = active, 0 = inactive

{"molecule": "O=c1c(Br)ccc(Br)cc1Br", "class_name": 1}
{"molecule": "CC/C(=C(/c1ccc(Cl)cc1)c1ccc(OCCCN(C)C)cc1)c1ccc(OC)cc1", "class_name": 0}
{"molecule": "COc1cc(/C=C2\\CCCC3=C2N=C2SC=NN2C3c2cc(OC)c(OC)c(OC)c2)cc(OC)c1OC (stereo not drawn)", "class_name": 0}

What call does the record list for COc1ccc(S(=O)(=O)Nc2c(/C=C\c3cc(OC)c(OC)c(OC)c3)ccc(OC)c2O)cc1OC ? 0

---

Provide the recorded TGI for the entries that follow.
System: M19-MEL melanoma
assay_name: NCI tumour cell line growth inhibition, 48 h

Consider the worked cases shown below.
{"molecule": "COC(=O)C1=CCS(=O)(=O)C1", "system_tested": "M19-MEL melanoma", "TGI": "> 100 µM"}
{"molecule": "COc1ccc(Nc2cnc3cc(N)ccc3n2)cc1OC", "system_tested": "M19-MEL melanoma", "TGI": "> 100 µM"}
{"molecule": "COc1ccc(/C=C\\c2cc(OC)c(OC(C)=O)c(OC)c2)cc1", "system_tested": "M19-MEL melanoma", "TGI": "> 100 µM"}
{"molecule": "CC(=O)Oc1cc(OC(C)=O)c(OC(C)=O)c2c1CC1C(=O)C3(CCc4ccccc43)C(=O)C1C2 (stereo not given)", "system_tested": "M19-MEL melanoma", "TGI": "30.1 µM"}

--- query ---
May I ask what TGI has been recorded for CSc1nnc2n1-c1ccccc1SCC2 ? > 100 µM

---

Test system: MALME-3M melanoma
assay_name: NCI tumour cell line growth inhibition, 48 h; in the data active = GI50 below about 0.43 µM; inactive = the rest
Thanks in advance; please answer with one of these: true (1) (active), false (0) (inactive)

Please share the test call associated with COc1ccc(-c2nn(C(=O)c3cc(OC)c(OC)c(OC)c3)c3cc(N)ccc23)cc1 . false (0)

Just curious, what result did Nc1c(S(=O)(=O)O)cc2c(c1Cl)C(=O)c1ccccc1C2=O get here? false (0)

State the result this test recorded for Cn1cc(C2=C(c3cn(CCCN/C(N)=N\[N+](=O)[O-])c4ccccc34)C(=O)NC2=O)c2ccccc21 . false (0)

Query: recorded result category for Cc1cc(=O)[nH]c2c1C(=O)C(=O)C=C2 in this test false (0)

Give the logged outcome of this assay for the following compound: COc1ccc2c(C(=O)NCCCCCC(=O)O)cc3cc4c(cc3c2c1)OCO4 false (0)

Please let me know the test result on file for O=c1c(-c2nc3ccccc3[nH]2)cc2ccccc2n1Cc1cn(Cc2ccc(F)cc2)nn1 . true (1)
